Just for reference, patent US8178539B2 is where these values come from.

Structures can show the parent of a compound that is named as a salt.
I'd be grateful if you could share measured melting point for these entries.

Given the entry CCOCc1nc2c(N)nc3c4c2n1[C@@H](C)CN4CCC3 [Example 5] , report its measured melting point. 164.1 to 165.6 °C

Now consider CCOCc1nc2c(N)nc3c4c2n1[C@H](C)CN4CCC3 [Example 4] and answer again. 164.5 to 166.1 °C

Now consider CCCc1nc2c(N)nc3c4c2n1CCN4CCC3 [Example 3] and answer again. 225 to 230 °C

Now consider COCCc1nc2c(N)nc3c4c2n1CCN4CCC3 [Example 2] and answer again. 171 to 172 °C

Now consider CCOCc1nc2c(N)nc3c4c2n1CCN4CCC3 [Example 1] and answer again. 172 to 173 °C

Now consider CCOCc1nc2c(N)nc3c4c2n1CC(C)(C)N4CCC3 (as salt: hydrochloride) [Example 6] and answer again. 222 to 227 °C
